Target: UniProtKB P36382
Sequence (P36382 whole entry): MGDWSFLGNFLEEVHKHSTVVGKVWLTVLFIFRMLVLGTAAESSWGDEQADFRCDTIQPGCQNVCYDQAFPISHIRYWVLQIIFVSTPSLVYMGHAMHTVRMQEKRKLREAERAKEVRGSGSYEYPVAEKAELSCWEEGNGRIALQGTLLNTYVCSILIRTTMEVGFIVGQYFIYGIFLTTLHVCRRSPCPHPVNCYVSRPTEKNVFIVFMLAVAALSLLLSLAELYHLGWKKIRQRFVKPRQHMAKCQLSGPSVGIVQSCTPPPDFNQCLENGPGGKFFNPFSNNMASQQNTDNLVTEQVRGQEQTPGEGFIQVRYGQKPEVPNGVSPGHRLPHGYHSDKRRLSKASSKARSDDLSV
Test: I-YFP GJIC assay, LN215-Cx40 cells
Details: 10 min treatment, best fit value ± standard error; read-out: IC50 for inhibition of Cx40-GJIC
Recorded IC50 for the following compounds
reported.endpoint: IC50

| compound | reported.endpoint | result.value |
| --- | --- | --- |
| CC1(C)[C@@H](OC(=O)CCC(=O)O)CC[C@]2(C)[C@H]3C(=O)C=C4[C@@H]5C[C@@](C)(C(=O)O)CC[C@]5(C)CC[C@@]4(C)[C@]3(C)CC[C@@H]12 [CBX, carbenoxolone, reference compound] | IC50 | 105 µM |
| CC(C)=CCCC1(C)C=Cc2c(O)c3c(c(CC=C(C)C)c2O1)OC12C(=CC4CC1C(C)(C)OC2(C/C=C(/C)C(=O)O)C4O)C3=O [D-GA, dihydrogambogic acid] | IC50 | 5.1 µM |

The measured values listed here are drawn from paper PMC6077758.
